assay: protease stability score; higher = more stable; yeast display proteolysis, trypsin and chymotrypsin;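 also: log10 excess protease needed over predicted unfolded state with 0 meaning unfolded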
Quick rule for you: protease stability score at 0.4 or higher means true, lower means false.

- Chain Sequence: "EDDAITRWEELERQQETGNEEKAQEMVDPNVKMRYGDDNFHGREEYRKLVHKIRKNWREDVKDVRFEDHGEEIKVEYRVHQDINGKPVNADVTAEAQMSNGRLKKFVLRFSETQEKEIES"
  Category: "false"
- Chain Sequence: "DEDAEKHWRTFLRNQKTGDEQKMRDQVDPNARASIGDQEVEGREKIVRELVEEFRHMHVQINWKSLTAHNGKVHAHADAQVDHNGRPQTYKITASAQFSNGKIKEFKMQRRP"
  Category: "false"
- Chain Sequence: "DEELADLAHKLLEAYHTGNPDDVVRNMDPNARQTIGDRTVHGRENIKKMLRKVLQEWRIDIHLRSYHLNGNQVKLSADFNLTVNGKPDEFTATIIVIQHNGKIHEVQLRMPEQDFREITS"
  Category: "true"
- Chain Sequence: "DERDRRVMEDFFRALEEGDPDTLRQNMDKDAKLVIGDKTYHGREEIATRIVQHIEHAHVRMRVDSIRAHNGRVEVNVTFMVNHNGRPRSDRMNVEAVIRNGKIKELHLVTEK"
  Category: "false"

q: API: above_or_equal(metric=protease stability score, cutoff=0.4) for item DKSAQDLFRKLLEALDTGDEKTAEENMDPNAHARVGDKEVHGMDEYAKHRATENRRMKIRWNSVNLRVHNGQLNVDVDVEVTENGRPSRSRARVVMRMKNGRIKRLEVNEHK
a: false

----------
test: protease stability score; higher = more stable; yeast display proteolysis, trypsin and chymotrypsin;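 also: log10 excess protease needed over predicted unfolded state with 0 meaning unfolded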
protease stability score overview

Previously resolved entries follow.
- Chain Sequence: "DESAVNNLVRLAKAWLRGDPKKIEHLVDKDAKAQIGDKTLHGREDLKDHADELRKDMTVDVKSVTNNNQNGQAVVDVKFEADRNGRPETHTLDAKATAHNGDIVDVKIHQDG"
  Assay Result: -0.304
- Chain Sequence: "DEEEIRMILDVIRARESGDEDRLHELLDKDVEFQVGEKTYHGREEIVRQVLQERREMQYSVNVKTVRDHNGVADIKAEFHFLYNGRPMNIDVEIHAHAHNGSVVNFRVRVDPKQMDDFKT"
  Assay Result: 1.26
- Chain Sequence: "DRKLEEVFRKWLKAQKEGNPEVARKNADKDAKIVIGDTQIHGRDEMAEKVRHRKKHLQVDIKIKRMQIQGDKIKIKFEVVENHNGKPEKYKATAFARASDGNFKEMQVNKTG"
  Assay Result: 0.12
- Chain Sequence: "DEDEMKNVLELIRVMSKGDEDRIRERADPNVKVNIGDKRLQGREELARQASTEKKKMDIHIRVDSVHVHDGNVLIVYKRENHYNGEPNRDEQRFQAQASNGNLKNMSWRFDEDKKRKIET"
  Assay Result: -0.038
- Chain Sequence: "DEDKMLKIAQEMAEAVVNGNVEQMKKQAHEGVQVHVGDEEVHGPDQLEEYVKKFKDQGVEVHYKETEHKGDTVTLKTTAVLGDAQVEFEAHYVVKGDKLQRFEVKLNKEQLKDFRKS"
  Assay Result: 0.242

Turning now to a further sequence:
q: I would be grateful if you could share the reported protease stability score for EDRDQAKHIIKEIMRAIQTGDRKHAMRQVDPNVRIHVGDKVLEGREEFMKWVKDLRDDVDHFHLRIHDMHVENGQLTADAEFVVDHNGQRRKQRMDVVFLVHGDKVRLLRLQEK .
a: 1.4
